assay: chemical genetic growth profiling, strain panel (AID 1159580);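 further: tested at 20 µM; growth read once vehicle control cultures reached saturation at 30 °C; 1 = growth at the plate median or of vehicle wells; lower values mean less growth of the strain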; settings: S. cerevisiae deletion strains, growth OD, locus YNL322C, strain KRE1, stronger effect = lower value
Hit rate of the full screen: of about 5,500 compounds, about 2,000 (36%) were called active. About 18% were inconclusive and are not listed. Some of the results follow.
normalized growth by entry:
measurement type: normalized growth

> print(dat)
                                    compound  number
 1                N[C@@H](COP(=O)(O)O)C(=O)O    1.01
 2  O=C(NC(Cc1ccccc1)C(=O)CCl)OCc1ccccc1 (stereo not given)   0.999
 3           CCOC(=O)c1sc(SC(C)C)c2c1CCCC2=O    0.97
 4  CCOC(=O)NC1=C(C2CC2)C(=O)C(NC(=O)OCC)=C(C2CC2)C1=O   0.998
 5  Cc1ccc(S(=O)(=O)N[C@@H](Cc2ccccc2)C(=O)CCl)cc1    1.01
 6              CCOCN(C(=O)CCl)c1c(C)cccc1CC   0.982
 7  CC1CCC2(OC1)OC1CC3C4CC[C@H]5C[C@@H](O)CC[C@]5(C)C4CC(=O)[C@]3(C)C1C2C (stereo not given in full)    1.01
 8   COc1cc2c(cc1OC)[C@@H](c1ccccc1)CN(C)CC2    1.01
 9  C[C@@H]1CC[C@@]2(OC1)O[C@H]1CC3C4CC[C@H]5C[C@@H](O)CC[C@]5(C)C4CC[C@]3(C)[C@H]1[C@@H]2C (stereo not given in full)   0.987
10  CC1CC[C@@]2(OC1)O[C@H]1CC3C4CC[C@@H]5C[C@@H](O)CC[C@]5(C)C4CC[C@]3(C)[C@H]1[C@@H]2C (stereo not given in full)    1.02

* * *

assay: chemical genetic growth profiling, strain panel (AID 1159580);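 further: tested at 20 µM; growth read once vehicle control cultures reached saturation at 30 °C; 1 = growth at the plate median or of vehicle wells; lower values mean less growth of the strain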; details: S. cerevisiae deletion strains, growth OD, locus YLR268W, strain sec22, stronger effect = lower value
Screen size: about 5,500 compounds; about 2,000 (36%) were called active. About 18% were inconclusive and are not listed. This is one part of the list.
normalized growth by entry:
measurement type: normalized growth

> print(dat)
                                   compound  number
1  C=C[C@H]1CN2CC[C@H]1C[C@@H]2[C@@H](OC(=O)OCC)c1ccnc2ccc(OC)cc12    1.02
2    NC(=O)NCC(N)C(=O)O (centres undefined)   0.983
3                Cc1cc(C2CCCCC2)n(O)c(=O)c1  0.0687
4                          NC(=O)CN1CCCC1=O    1.01
5                CCC/C=C1\OC(=O)C2=C1CCC=C2   0.953
6                COc1cccc2c(C)cc(=O)[nH]c12     0.9
7  Oc1cc2c(cc1O)C1c3ccc(O)c(O)c3OCC1(O)C2 (centres undefined)    1.04
8     Cc1ccccc1OCC(O)CO (centres undefined)   0.996
9  CCN1C[C@]2(C)CC[C@H](OC)[C@]34C2[C@H](O)[C@]2(OCO[C@@]25C[C@H](OC)[C@H]2C[C@]3(O)C5[C@H]2O)C14    1.02

* * *

assay: chemical genetic growth profiling, strain panel (AID 1159580);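 further: tested at 20 µM; growth read once vehicle control cultures reached saturation at 30 °C; 1 = growth at the plate median or of vehicle wells; lower values mean less growth of the strain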; conditions: S. cerevisiae deletion strains, growth OD, locus YDR297W, strain sur2, stronger effect = lower value
The whole screen tested about 5,500 compounds, of which about 2,000 (36%) were called active. Inconclusive results (about 18%) are left out. Some of the results follow. Where a SMILES comes first, the peptide text is derived from it.
normalized growth by entry:

compound	normalized growth
COc1cc2occc2c2oc(=O)ccc12	0.998
COc1cc(OC)c2c(=O)c(O)c(-c3ccc(OC)c(OC)c3)oc2c1	0.841
O=c1ccc2c(O)c3ccoc3cc2o1	0.987
COc1cc(OC)c2c(=O)c(OC)c(-c3ccc(OC)c(OC)c3)oc2c1	1.01
CCCCCCC(C)OC(=O)COc1ccc(Cl)cc1Cl (centres undefined)	0.988
CCCCC1C(=O)N(c2ccccc2)N(c2ccc(O)cc2)C1=O (centres undefined)	1.01
CCCCCCCCCCCC1=C(O)C(=O)C=C(O)C1=O	0.87
COC(=O)c1c(C)cc(OC)cc1O	0.984
COC(=O)c1c(C)cc(O)cc1O	1.01
CN[C@@H]1[C@@H](O)C(OC2[C@@H](N)C[C@@H](N)[C@H](O[C@H]3O[C@H](C(C)O)[C@@H](O)[C@H](O)[C@H]3N)[C@H]2O)OC[C@]1(C)O (some centres undefined)	0.979
COc1c2ccoc2cc2oc(=O)ccc12	0.99
O=C1[O][Bi][O]c2ccccc21	0.94
COC(=O)[C@]1(C)CCC[C@]2(C)c3ccc(C(C)C)cc3C(=O)CC12 (some centres undefined)	0.967
CC(=O)[C@@]1(O)CCC2C3C[C@H](C)C4=CC(=O)C=CC4(C)[C@@]3(F)[C@@H](O)C[C@@]21C (some centres undefined)	0.975
CCN[C@@H]1C[C@H](N)[C@@H](O[C@H]2OC(CN)=CC[C@H]2N)[C@H](O)[C@H]1OC1OC[C@](C)(O)[C@H](NC)[C@H]1O (some centres undefined)	0.998
CC(C)c1c(O)ccc2c1CCC1[C@@](C)(C=O)CCC[C@]21C (some centres undefined)	0.772
O=c1ccc2cc(OC3OC(CO)C(O)C(O)C3O)c(O)cc2o1 (centres undefined)	0.995
COC(=O)[C@H](Cc1ccccc1)NC(=O)[C@@H](N)CC(=O)O (H-Asp-Phe-OMe)	1.02
C=C(C)[C@H]1COc2cc3oc(=O)ccc3cc2O1	0.956
O=C(Cc1cccs1)NC1C(=O)N2C(C(=O)[O-])=C(C[n+]3ccccc3)CSC12 (centres undefined)	0.989
CC(CC(C(N)=O)(c1ccccc1)c1ccccc1)N(C)C (centres undefined)	0.983
Cc1cc(C2CCCCC2)n(O)c(=O)c1	0.0662
COC1=CC(=O)C(C(=O)c2ccccc2)=CC1=O	0.967
O=C(O[C@@H]1Cc2c(O)cc(O)cc2O[C@@H]1c1cc(O)c(=O)c2c(O)c(O)cc([C@H]3Oc4cc(O)cc(O)c4C[C@H]3O)c2c1)c1cc(O)c(O)c(O)c1	0.599
CNC(=O)Oc1cccc2c1OC(C)(C)O2	0.997
O=C(O[C@@H]1Cc2c(O)cc(O)cc2O[C@@H]1c1cc(O)c(=O)c2c(O)c(O)cc([C@H]3Oc4cc(O)cc(O)c4C[C@H]3OC(=O)c3cc(O)c(O)c(O)c3)c2c1)c1cc(O)c(O)c(O)c1	0.45
O=C(OC1Cc2c(O)cc(O)cc2OC1c1cc(=O)c(O)c2c(O)c(O)cc(C3Oc4cc(O)cc(O)c4CC3O)c2c1)c1cc(O)c(O)c(O)c1 (centres undefined)	0.966
CN[C@@H]1C(O)[C@@H](O[C@@H]2[C@@H](O)[C@H](O[C@H]3OC(CN)=CC[C@H]3N)[C@@H](N)C[C@H]2N)OC[C@]1(C)O (some centres undefined)	1.02
CC(C)c1c(O)ccc2c1CCC1C(C)(C)CCC[C@]21C (some centres undefined)	0.353
CC(C)(C)NCC(O)c1cc(Cl)c(N)c(Cl)c1 (centres undefined)	1
CC(C)c1c(O)c(-c2cc3c(c(C(C)C)c2O)CCC2C(C)(C)CCC[C@]32C)cc2c1CCC1C(C)(C)CCC[C@]21C (some centres undefined)	0.985
OC1CC2CCCC(C1)N2Cc1ccccc1 (centres undefined)	0.998
COc1ccc(-c2oc3c(CC=C(C)C)c(O[C@@H]4O[C@H](CO)[C@@H](O)[C@H](O)[C@H]4O)cc(O)c3c(=O)c2O[C@@H]2O[C@@H](C)[C@H](O)[C@@H](O)[C@H]2O)cc1	1.03
NC(=O)c1ncn([C@@H]2O[C@H](CO)[C@@H](O)[C@H]2O)n1	0.99
Cc1cc(OC(=O)c2c(C)cc(O)cc2O)cc(O)c1C(=O)O	0.99
CC(=O)OCC1=C(C(=O)O)N2C(=O)[C@@H](NC(=O)Cc3cccs3)[C@H]2SC1	1.02
Oc1ccc2c(c1)OCC1(O)Cc3cc(O)c(O)cc3C21 (centres undefined)	1.02
Oc1cc2c(cc1O)C1c3ccc(O)c(O)c3OCC1(O)C2 (centres undefined)	1.01
NS(=O)(=O)c1cc(C2(O)NC(=O)c3ccccc32)ccc1Cl (centres undefined)	0.995

* * *

normalized growth by entry:
experiment: chemical genetic growth profiling, strain panel (AID 1159580);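 further: tested at 20 µM; growth read once vehicle control cultures reached saturation at 30 °C; 1 = growth at the plate median or of vehicle wells; lower values mean less growth of the strain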; settings: S. cerevisiae deletion strains, growth OD, locus YLL026W, stronger effect = lower value
The whole screen tested about 5,500 compounds, of which about 2,000 (36%) were called active. Another 18% or so got no clear call; they are omitted. The list shows a part of the results.
measurement type: normalized growth

compound	number
O=C(O[C@@H]1Cc2c(O)cc(O)cc2O[C@@H]1c1cc(O)c(=O)c2c(O)c(O)cc([C@H]3Oc4cc(O)cc(O)c4C[C@H]3O)c2c1)c1cc(O)c(O)c(O)c1	0.719
CCC1OC(=O)[C@H](C)C(=O)[C@H](C)[C@@H](OC2O[C@H](C)C[C@H](N(C)C)[C@H]2O)[C@](C)(OC)C2(CCCn3cnc(-c4cccnc4)c3)C[C@@H](C)C(=O)[C@H](C)[C@H]3N(C2)C(=O)O[C@]13C (stereo partly drawn)	0.988
C[C@]12CCC3c4ccc(OS(=O)(=O)O)cc4CCC3C1CC[C@H]2O (stereo partly drawn)	0.967
CC(=O)Oc1ccc2c(c1OC(C)=O)OCC1(O)Cc3c(cc(OC(C)=O)c(OC(C)=O)c3OC(C)=O)C21 (stereo not drawn)	1.01
CCCCCCC(C)OC(=O)COc1ccc(Cl)cc1Cl (stereo not drawn)	0.986
O=C(Cc1cccs1)NC1C(=O)N2C(C(=O)[O-])=C(C[n+]3ccccc3)CSC12 (stereo not drawn)	0.997
CCN[C@@H]1C[C@H](N)[C@@H](O[C@H]2OC(CN)=CC[C@H]2N)[C@H](O)[C@H]1OC1OC[C@](C)(O)[C@H](NC)[C@H]1O (stereo partly drawn)	1.01
O=C1[O][Bi][O]c2ccccc21	1.01
COc1cccc2c(C)cc(=O)[nH]c12	0.952
Cc1cc(OC(=O)c2c(C)cc(O)cc2O)cc(O)c1C(=O)O	0.991
CC1O[C@@H](Oc2c(-c3ccc(O)c(O)c3)oc3cc(O)cc(O)c3c2=O)[C@H](O)[C@H](O)[C@H]1O (stereo partly drawn)	0.996
COc1ccc2c(c1)CCC1C2CCC2(C)C1C[C@@H](O)C2O (stereo partly drawn)	0.974
C=C(C)[C@H]1COc2cc3oc(=O)ccc3cc2O1	0.966
CN[C@@H]1[C@@H](O)C(OC2[C@@H](N)C[C@@H](N)[C@H](O[C@H]3O[C@H](C(C)O)[C@@H](O)[C@H](O)[C@H]3N)[C@H]2O)OC[C@]1(C)O (stereo partly drawn)	0.971
NC(=O)c1ncn([C@@H]2O[C@H](CO)[C@@H](O)[C@H]2O)n1	0.984
COc1ccc(-c2cc(=O)c3c(O)cc(O[C@@H]4O[C@H](CO[C@H]5O[C@H](C)[C@@H](O)[C@H](O)[C@@H]5O)[C@@H](O)[C@H](O)[C@H]4O)cc3o2)cc1O	1.01
O=C(OC1Cc2c(O)cc(O)cc2OC1c1cc(=O)c(O)c2c(O)c(O)cc(C3Oc4cc(O)cc(O)c4CC3O)c2c1)c1cc(O)c(O)c(O)c1 (stereo not drawn)	0.978
O=c1c(O)c(-c2ccc(O)c(O)c2)oc2c(O[C@@H]3O[C@H](CO)[C@H](O)[C@@H](O)[C@H]3O)c(O)cc(O)c12	1.01
CCC(=O)c1c(O)cc(O)cc1O	0.999
CC[n+]1c(-c2ccccc2)c2cc(N)ccc2c2ccc(N)cc21	0.97
CC(C)c1c(O)c(-c2cc3c(c(C(C)C)c2O)CCC2C(C)(C)CCC[C@]32C)cc2c1CCC1C(C)(C)CCC[C@]21C (stereo partly drawn)	0.997
COC(=O)c1c(C)cc(O)cc1O	0.996
O=c1c(O)c(-c2ccc(O)c(O)c2)oc2c(O)c(O)cc(O)c12	1.02
Cc1[nH]ccc2c1[nH]c1cc(=O)ccc12	1
CCOC(=O)c1c(C)cc(O)cc1O	0.935
CCCCCC(=O)Cc1cc(O)cc(O)c1C(=O)Oc1cc(CC(=O)CCCCC)c(C(=O)O)c(OC)c1	0.935
CCc1cc(C(N)=S)ccn1	1
COC(=O)c1c(C)cc(OC)cc1O	0.981
CCCC(C)(COC(N)=O)COC(=O)NC(C)C (stereo not drawn)	1
Oc1cc2c(cc1O)C1c3ccc(O)c(O)c3OCC1(O)C2 (stereo not drawn)	1.01
CCCCOc1cc(C(=O)NCCN(CC)CC)c2ccccc2n1	0.981
C=CC1C2=CCOC(=O)C2=COC1OC1OC(CO)C(O)C(O)C1O (stereo not drawn)	1.01
COc1ccc(-c2oc3cc(O[C@H]4O[C@H](CO)[C@@H](O)[C@H](O)[C@H]4O)c(OC)c(O)c3c(=O)c2OC)cc1O	0.995
CCOC(=O)c1c(C)cc(OC)cc1O	0.965
CN1C[C@H](C(=O)N[C@]2(C)O[C@@]3(O)[C@@H]4CCCN4C(=O)[C@H](Cc4ccccc4)N3C2=O)C[C@@H]2c3cccc4[nH]cc(c34)C[C@H]21	0.988
O=C(O)C1=C[C@@H](O)[C@@H](O)[C@H](O)C1	0.975
CCCCCc1c2c(cc(O)c1C(=O)O)OC(=O)c1c(cc(OC)cc1C(=O)CCCC)O2	0.995
CC(=O)OCC1=C(C(=O)O)N2C(=O)[C@@H](NC(=O)Cc3cccs3)[C@H]2SC1	1.02
